# assay-procedure: Stabilization of mode-3 phosphopeptide FAM-KRSHpSV binding to recombinant 14-3-3 zeta (unknown origin) measured by fluorescence polarization assay
# Set-up: species or system Homo sapiens
pKd: recorded values
Here pKd is given on a logarithmic scale as minus log10 of the concentration in mol/L.

In the examples that follow, each entry is paired with its recorded pKd.
- structure-smiles-string: "C=CC(C)(C)OC[C@H]1O[C@H](O[C@@H]2C3=C([C@H](C)CNC(C)=O)C[C@H](O)[C@]3(C)/C=C3/[C@@H](COC)CC[C@H]3[C@@H](C)[C@H]2O)[C@H](O)[C@@H](O)[C@@H]1O"
  pKd: 7.42
- structure-smiles-string: "C=CC(C)(C)OC[C@H]1O[C@H](O[C@@H]2C3=C(C(C)C)C[C@H](OCc4ccc(C(=O)OC)cc4)[C@]3(C)/C=C3/[C@@H](COC)CC[C@H]3[C@@H](C)[C@H]2O)[C@H](O)[C@@H](O)[C@@H]1O"
  pKd: 6.22
- structure-smiles-string: "COC[C@H]1CC[C@@H]2/C1=C\\[C@@]1(C)CCC(C(C)C)=C1[C@@H](O[C@H]1O[C@@H]3COC(C)(C)O[C@H]3[C@H](O)[C@H]1O)[C@H](O)[C@@H]2C"
  pKd: 7.02

Attention now turns to another entry.
Quick note, pKd for COC[C@H]1CC[C@@H]2/C1=C\[C@@]1(C)CCC(C(C)C)=C1[C@@H](O[C@H]1O[C@H](CN)[C@@H](O)[C@H](O)[C@H]1O)[C@H](O)[C@@H]2C landed at 7.15

* * *

# assay-procedure: Stabilization of mode-3 phosphopeptide FAM-KRSHpSV binding to recombinant 14-3-3 zeta (unknown origin) measured by fluorescence polarization assay
# Design: species or system Homo sapiens
property-name: Kd (nM)
Answer in nM, number only, no unit symbol.

In the examples that follow, each entry is paired with its recorded Kd.
- structure-smiles-string: "COC[C@H]1CC[C@@H]2/C1=C\\[C@@]1(C)CCC([C@H](C)CNC(=O)C(F)(F)F)=C1[C@@H](O[C@H]1O[C@@H]3COC(C)(C)O[C@H]3[C@H](O)[C@H]1O)[C@H](O)[C@@H]2C"
  recorded-measurement: 42
- structure-smiles-string: "CCCNC[C@H]1O[C@H](O[C@@H]2C3=C(C(C)C)CC[C@]3(C)/C=C3/[C@@H](COC)CC[C@H]3[C@@H](C)[C@H]2O)[C@H](O)[C@@H](O)[C@@H]1O"
  recorded-measurement: 120

Attention now turns to another entry.
Quick note, Kd for COC[C@H]1CC[C@@H]2/C1=C\[C@@]1(C)CCC([C@H](C)CNC(=O)C3CC3)=C1[C@@H](O[C@H]1O[C@@H]3COC(C)(C)O[C@H]3[C@H](O)[C@H]1O)[C@H](O)[C@@H]2C landed at 41

* * *

# assay-procedure: Stabilization of mode-1 phosphopeptide FAM-KRSHpSVP binding to recombinant 14-3-3 zeta (unknown origin) measured by fluorescence polarization assay
# Parameters: species or system Homo sapiens
property-name: log10 of Kd (log10 of the value in nM)
Record value = log10 of Kd given in nM.

In the examples that follow, each entry is paired with its recorded log10 of Kd.
- structure-smiles-string: "C=CC(C)(C)OC[C@H]1O[C@H](O[C@@H]2C3=C(C(C)C)C[C@H](OCc4ccc(C(=O)O)cc4)[C@]3(C)/C=C3/[C@@H](COC)CC[C@H]3[C@@H](C)[C@H]2O)[C@H](O)[C@@H](O)[C@@H]1O"
  log10 of Kd: 2.67
- structure-smiles-string: "C=CC(C)(C)OC[C@H]1O[C@H](O[C@@H]2C3=C(C(C)C)C[C@H](O)[C@]3(C)/C=C3/[C@@H](COC)CC[C@H]3[C@@H](C)[C@H]2O)[C@H](O)[C@@H](O)[C@@H]1O"
  log10 of Kd: 2.63
- structure-smiles-string: "C=CC(C)(C)OC[C@H]1O[C@H](O[C@@H]2C3=C([C@H](C)CNC(C)=O)C[C@H](O)[C@]3(C)/C=C3/[C@@H](COC)CC[C@H]3[C@@H](C)[C@H]2O)[C@H](O)[C@@H](O)[C@@H]1O"
  log10 of Kd: 2.23
- structure-smiles-string: "CCCNC[C@H]1O[C@H](O[C@@H]2C3=C(C(C)C)CC[C@]3(C)/C=C3/[C@@H](COC)CC[C@H]3[C@@H](C)[C@H]2O)[C@H](O)[C@@H](O)[C@@H]1O"
  log10 of Kd: 2.20
- structure-smiles-string: "COC[C@H]1CC[C@@H]2/C1=C\\[C@@]1(C)CCC([C@H](C)CNC(=O)C3CC3)=C1[C@@H](O[C@H]1O[C@@H]3COC(C)(C)O[C@H]3[C@H](O)[C@H]1O)[C@H](O)[C@@H]2C"
  log10 of Kd: 2.04

Attention now turns to another entry.
Quick note, log10 of Kd for C=CC(C)(C)OC[C@H]1O[C@H](O[C@@H]2C3=C(C(C)C)C[C@H](OCc4ccc(C(=O)OC)cc4)[C@]3(C)/C=C3/[C@@H](COC)CC[C@H]3[C@@H](C)[C@H]2O)[C@H](O)[C@@H](O)[C@@H]1O landed at 2.83

* * *

# assay-procedure: Stabilization of mode-3 phosphopeptide FAM-KRSHpSV binding to recombinant 14-3-3 zeta (unknown origin) measured by fluorescence polarization assay
# Parameters: species or system Homo sapiens
property-name: Kd (nM)
Answer in nM, number only, no unit symbol.

Quick note, Kd for C=CC(C)(C)OC[C@H]1O[C@H](O[C@@H]2C3=C(C(C)C)C[C@H](OCc4ccc(C(=O)O)cc4)[C@]3(C)/C=C3/[C@@H](COC)CC[C@H]3[C@@H](C)[C@H]2O)[C@H](O)[C@@H](O)[C@@H]1O landed at 390

Quick note, Kd for C=CC(C)(C)OC[C@H]1O[C@H](O[C@@H]2C3=C(C(C)C)C[C@H](OCc4ccc(C#N)cc4)[C@]3(C)/C=C3/[C@@H](COC)CC[C@H]3[C@@H](C)[C@H]2O)[C@H](O)[C@@H](O)[C@@H]1O landed at 380

Quick note, Kd for C=CC(C)(C)OC[C@H]1O[C@H](O[C@@H]2C3=C(C(C)C)C[C@H](OCc4ccccc4C(=O)O)[C@]3(C)/C=C3/[C@@H](COC)CC[C@H]3[C@@H](C)[C@H]2O)[C@H](O)[C@@H](O)[C@@H]1O landed at 480

* * *

# assay-procedure: Stabilization of mode-1 phosphopeptide FAM-KRSHpSVP binding to recombinant 14-3-3 zeta (unknown origin) measured by fluorescence polarization assay
# Design: species or system Homo sapiens
pKd: recorded values
Here pKd is given on a logarithmic scale as minus log10 of the concentration in mol/L.

- structure-smiles-string: "COC[C@H]1CC[C@@H]2/C1=C\\[C@@]1(C)CCC(C(C)C)=C1[C@@H](O[C@H]1O[C@H](CN)[C@@H](O)[C@H](O)[C@H]1O)[C@H](O)[C@@H]2C"
  pKd: 7.22
- structure-smiles-string: "COC[C@H]1CC[C@@H]2/C1=C\\[C@@]1(C)CCC(C(C)C)=C1[C@@H](O[C@H]1O[C@H](CNCc3ccccc3)[C@@H](O)[C@H](O)[C@H]1O)[C@H](O)[C@@H]2C"
  pKd: 6.51
- structure-smiles-string: "COC[C@H]1CC[C@@H]2/C1=C\\[C@@]1(C)CCC([C@H](C)CNC(=O)C3CCCCC3)=C1[C@@H](O[C@H]1O[C@@H]3COC(C)(C)O[C@H]3[C@H](O)[C@H]1O)[C@H](O)[C@@H]2C"
  pKd: 6.89

Quick note, pKd for COC[C@H]1CC[C@@H]2/C1=C\[C@@]1(C)CCC([C@H](C)CNC(=O)C(F)(F)F)=C1[C@@H](O[C@H]1O[C@@H]3COC(C)(C)O[C@H]3[C@H](O)[C@H]1O)[C@H](O)[C@@H]2C landed at 7.10

* * *

# assay-procedure: Stabilization of mode-3 phosphopeptide FAM-KRSHpSV binding to recombinant 14-3-3 zeta (unknown origin) measured by fluorescence polarization assay
# Design: species or system Homo sapiens
Kd: recorded values
Answer in nM, number only, no unit symbol.

In the examples that follow, each entry is paired with its recorded Kd.
- structure-smiles-string: "C=CC(C)(C)OC[C@H]1O[C@H](O[C@@H]2C3=C(C(C)C)C[C@H](OCc4ccccc4C(=O)OC)[C@]3(C)/C=C3/[C@@H](COC)CC[C@H]3[C@@H](C)[C@H]2O)[C@H](O)[C@@H](O)[C@@H]1O"
  recorded-measurement: 530
- structure-smiles-string: "COC[C@H]1CC[C@@H]2/C1=C\\[C@@]1(C)CCC([C@H](C)CNC(=O)C3CCCCC3)=C1[C@@H](O[C@H]1O[C@@H]3COC(C)(C)O[C@H]3[C@H](O)[C@H]1O)[C@H](O)[C@@H]2C"
  recorded-measurement: 32
- structure-smiles-string: "COC[C@H]1CC[C@@H]2/C1=C\\[C@@]1(C)CCC(C(C)C)=C1[C@@H](O[C@H]1O[C@H](CNCc3ccccc3)[C@@H](O)[C@H](O)[C@H]1O)[C@H](O)[C@@H]2C"
  recorded-measurement: 250

Quick note, Kd for C=CC(C)(C)OC[C@H]1O[C@H](O[C@@H]2C3=C(C(C)C)C[C@H](OCc4ccc(N=[N+]=[N-])cc4)[C@]3(C)/C=C3/[C@@H](COC)CC[C@H]3[C@@H](C)[C@H]2O)[C@H](O)[C@@H](O)[C@@H]1O landed at 320

Quick note, Kd for COC[C@H]1CC[C@@H]2/C1=C\[C@@]1(C)CCC([C@H](C)CNC(C)=O)=C1[C@@H](O[C@H]1O[C@@H]3COC(C)(C)O[C@H]3[C@H](O)[C@H]1O)[C@H](O)[C@@H]2C landed at 44

Quick note, Kd for C=CC(C)(C)OC[C@H]1O[C@H](O[C@@H]2C3=C(C(C)C)C[C@H](OCc4ccccc4N=[N+]=[N-])[C@]3(C)/C=C3/[C@@H](COC)CC[C@H]3[C@@H](C)[C@H]2O)[C@H](O)[C@@H](O)[C@@H]1O landed at 480

Quick note, Kd for C=CC(C)(C)OC[C@H]1O[C@H](O[C@@H]2C3=C(C(C)C)C[C@H](O)[C@]3(C)/C=C3/[C@@H](COC)CC[C@H]3[C@@H](C)[C@H]2O)[C@H](O)[C@@H](O)[C@@H]1O landed at 77
